- System: angiotensin II receptor
- experimentNotes: Angiotensin II Receptor Binding Assay ([3H] angiotensin II binding inhibition)
- runConditions: [3H] angiotensin II ligand; 60 minutes, 25° C.; test concentration not given
testReadout: Binding Inhibition(%)

molecule="CCCCc1nc2cc(-c3cccs3)c(C(OC)OC)nc2n1Cc1ccc(-c2ccccc2-c2nnn[nH]2)cc1 [Example 14]" reading=72.0%
molecule="CCCCc1nc2cc(-c3ccccc3)c(C3OCCO3)nc2n1Cc1ccc(-c2ccccc2-c2nnn[nH]2)cc1 [Example 3]" reading=70.6%
molecule="CCCCc1nc2cc(CCc3ccccc3)c(C(OC)OC)nc2n1Cc1ccc(-c2ccccc2-c2nn[nH]n2)cc1 [Example 15]" reading=82.0%
molecule="CCCCc1nc2cc(-c3ccccn3)c(C(OC)OC)nc2n1Cc1ccc(-c2ccccc2-c2nnn[nH]2)cc1 [Example 8]" reading=93.4%
molecule="CCCCc1nc2cc(-c3ccc[n+]([O-])c3)c(C(OC)OC)nc2n1Cc1ccc(-c2ccccc2-c2nn[nH]n2)cc1 [Example 24]" reading=94.9%
molecule="CCCCc1nc2cc(-c3ccccc3)c(C(OC)OC)nc2n1Cc1ccc(-c2ccccc2-c2nnn[nH]2)cc1 [Example 1]" reading=77.8%
molecule="CCCCc1nc2cc(-c3cc[n+]([O-])cc3)c(C(OC)OC)nc2n1Cc1ccc(-c2ccccc2-c2nn[nH]n2)cc1 [Example 25]" reading=97.0%

----------
- Tested on: angiotensin II receptor
- experimentNotes: Angiotensin II Receptor Binding Assay ([3H] angiotensin II binding inhibition)
- runConditions: [3H] angiotensin II ligand; 60 minutes, 25° C.; test concentration not given
testReadout: Binding Inhibition(%)

givensmiles=CCCCc1nc2cc(CCC(=O)OCC)c(C(OC)OC)nc2n1Cc1ccc(-c2ccccc2-c2nn[nH]n2)cc1 unittext=% reading=95.0
givensmiles=CCCCc1nc2cc(-c3cccnc3)c(C(OC)OC)nc2n1Cc1ccc(-c2ccccc2-c2nnn[nH]2)cc1 unittext=% reading=94.8
givensmiles=CCCCc1nc2cc(-c3ccc(OC)cc3)c(C(OC)OC)nc2n1Cc1ccc(-c2ccccc2-c2nn[nH]n2)cc1 unittext=% reading=49.0
givensmiles=CCCCc1nc2cc(-c3ccc(COCc4ccccc4)cc3)c(C(OC)OC)nc2n1Cc1ccc(-c2ccccc2-c2nn[nH]n2)cc1 unittext=% reading=82.0
givensmiles=CCCCc1nc2cc(Br)c(C(OC)OC)nc2n1Cc1ccc(-c2ccccc2-c2nnn[nH]2)cc1 unittext=% reading=78.1
givensmiles=CCCCc1nc2c(C)c(-c3ccccc3)c(C(OC)OC)nc2n1Cc1ccc(-c2ccccc2-c2nnn[nH]2)cc1 unittext=% reading=50.5
givensmiles=CCCCc1nc2cc(-c3ccccc3)c(C3OCCCO3)nc2n1Cc1ccc(-c2ccccc2-c2nn[nH]n2)cc1 unittext=% reading=60.9

----------
- System: angiotensin II receptor
- experimentNotes: Angiotensin II Receptor Binding Assay ([3H] angiotensin II binding inhibition)
- runConditions: [3H] angiotensin II ligand; 60 minutes, 25° C.; test concentration not given
testReadout: Binding Inhibition(%)

compound=CCCCc1nc2cc(-c3ccc(C)cc3)c(C(OC)OC)nc2n1Cc1ccc(-c2ccccc2-c2nn[nH]n2)cc1 reading=68.5%
compound="CCCCc1nc(Cl)c(CO)n1Cc1ccc(-c2ccccc2-c2nn[nH]n2)cc1 [Losartan(Dup 753), Losartan, reference compound]" reading=48.0%
compound=CCCCc1nc2cc(-c3ccccc3[N+](=O)[O-])c(C(OC)OC)nc2n1Cc1ccc(-c2ccccc2-c2nn[nH]n2)cc1 reading=70.9%
compound=CCCCc1nc2cc(Cc3ccccc3)c(C(OC)OC)nc2n1Cc1ccc(-c2ccccc2-c2nnn[nH]2)cc1 reading=87.8%
compound=CCCCc1nc2cc(-c3ccccc3N)c(C(OC)OC)nc2n1Cc1ccc(-c2ccccc2-c2nn[nH]n2)cc1 reading=89.2%
compound=CCCCc1nc2ccc(C(OC)OC)nc2n1Cc1ccc(-c2ccccc2-c2nnn[nH]2)cc1 reading=83.6%
compound=CCCCc1nc2cc(-c3cccc[n+]3[O-])c(C(OC)OC)nc2n1Cc1ccc(-c2ccccc2-c2nn[nH]n2)cc1 reading=92.2%

----------
- System: angiotensin II receptor
- experimentNotes: Angiotensin II Receptor Binding Assay ([3H] angiotensin II binding inhibition)
- runConditions: [3H] angiotensin II ligand; 60 minutes, 25° C.; test concentration not given
testReadout: Binding Inhibition(%)

givensmiles=CCc1nc2c(C)cc(C(OC)OC)nc2n1Cc1ccc(-c2ccccc2-c2nnn[nH]2)cc1 testreadout="Binding Inhibition(%)" reading=44.5
givensmiles=CCCCc1nc2cc(-c3ccccc3OC)c(C(OC)OC)nc2n1Cc1ccc(-c2ccccc2-c2nn[nH]n2)cc1 testreadout="Binding Inhibition(%)" reading=81.9
givensmiles=CCCCc1nc2cc(-c3ccc(CO)cc3)c(C(OC)OC)nc2n1Cc1ccc(-c2ccccc2-c2nn[nH]n2)cc1 testreadout="Binding Inhibition(%)" reading=89.4
givensmiles=CCCCc1nc2cc(-c3ccc(F)cc3)c(C(OC)OC)nc2n1Cc1ccc(-c2ccccc2-c2nn[nH]n2)cc1 testreadout="Binding Inhibition(%)" reading=45.2
givensmiles=CCCCc1nc2cc(-c3ccncc3)c(C(OC)OC)nc2n1Cc1ccc(-c2ccccc2-c2nnn[nH]2)cc1 testreadout="Binding Inhibition(%)" reading=92.9
givensmiles=CCCCc1nc2cc(-c3ccccc3)c(C3SCCS3)nc2n1Cc1ccc(-c2ccccc2-c2nnn[nH]2)cc1 testreadout="Binding Inhibition(%)" reading=54.1
givensmiles=CCCCc1nc2c(C)cc(C(OC)OC)nc2n1Cc1ccc(-c2ccccc2-c2nnn[nH]2)cc1 testreadout="Binding Inhibition(%)" reading=52.5
